Provide the recorded EC50 for the entries that follow.
# target or system: MRGPRX4 (Homo sapiens, UniProt Q96LA9)
# Sequence (Q96LA9 whole entry): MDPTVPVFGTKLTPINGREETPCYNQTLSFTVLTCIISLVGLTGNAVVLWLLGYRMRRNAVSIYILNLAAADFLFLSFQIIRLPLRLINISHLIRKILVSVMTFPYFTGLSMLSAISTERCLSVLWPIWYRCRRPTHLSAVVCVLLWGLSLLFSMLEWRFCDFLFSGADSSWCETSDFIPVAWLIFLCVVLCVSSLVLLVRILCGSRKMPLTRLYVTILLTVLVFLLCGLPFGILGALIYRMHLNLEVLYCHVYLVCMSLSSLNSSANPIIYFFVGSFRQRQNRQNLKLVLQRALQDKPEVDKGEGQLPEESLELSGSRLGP
# protocol notes: MRGPRX4 activation, Fluo-8 Ca2+ FLIPR assay in HEK293T cells stably expressing MRGPRX4
# Format: cell-based
# run parameters: MRGPRX4 activation, Ca2+ fluorescence; no activation in tested range reported as III; read-out: Activity (EC50 μM)

Examples with answers:
{"compound": "CC[C@H]1[C@@H](O)[C@@H]2[C@H](CC[C@]3(C)[C@@H]([C@H](C)CCNC(=O)NS(=O)(=O)c4cc(F)ccc4F)CC[C@@H]23)[C@@]2(C)CC[C@H](F)C[C@@H]12 [9-2]", "EC50": "50 to 100 µM"}
{"compound": "CC[C@H]1[C@@H](O)[C@@H]2[C@H](CC[C@]3(C)[C@@H]([C@H](C)CCNC(=O)NS(=O)(=O)c4cc(F)ccc4F)CC[C@@H]23)[C@@]2(C)CCCC[C@@H]12 [5-23]", "EC50": "> 100 µM"}
{"compound": "CC(O)CC[C@@H](C)[C@H]1CC[C@H]2[C@@H]3CC[C@@H]4CCCC[C@]4(C)[C@H]3CC[C@]12C (stereo partly shown) [2-2]", "EC50": "> 100 µM"}

Turning to the following compound.
Look up EC50 for this compound: CC[C@H]1[C@@H](O)[C@@H]2[C@H](CC[C@]3(C)[C@@H]([C@H](C)CCNC(=O)NS(=O)(=O)c4cccc(Cl)c4)CC[C@@H]23)[C@@]2(C)CCCC[C@@H]12 [5-7]
> 100 µM

All values here come from patent US20260116910A1.
